All figures here come from paper PMC4356558.

system: GRPS genomic biomarker signature (389 transcripts) in MUTZ-3 cells; experiment: GARD assay with GARD Respiratory Prediction Signature (GRPS), SVM classification of respiratory sensitizers; conditions: respiratory sensitizer if any of replicate stimulations has SVM decision value > 0
PROPERTY LABEL: Classification, Pos if 1 sample > 0

Some solved entries appear below for comparison.
[[record]]
compound = "Cc1ccc(S(=O)(=O)NCl)cc1"
result = "Sensitizer"

[[record]]
compound = "C1CNCCN1"
result = "Non-sensitizer"

[[record]]
compound = "O=C(O)c1ccccc1O"
result = "Non-sensitizer"

[[record]]
compound = "O=C1OC(=O)c2ccccc21 [Phtalic Anhydride]"
result = "Sensitizer"

[[record]]
compound = "CCOC(=O)c1ccccc1C(=O)OCC [Diethyl phthalate]"
result = "Non-sensitizer"


Count: 2. Required value per item: Classification, Pos if 1 sample > 0.
1. Nc1ccc(N)cc1
2. Oc1cccc(O)c1

Non-sensitizer
Non-sensitizer

Count: 3. Required value per item: Classification, Pos if 1 sample > 0.
1. O=[N+]([O-])c1ccc(Cl)c([N+](=O)[O-])c1
2. O=Cc1ccccc1
3. OCC(O)CO

1: Non-sensitizer; 2: Non-sensitizer; 3: Non-sensitizer

Count: 4. Required value per item: Classification, Pos if 1 sample > 0.
1. C=CCc1ccc(O)c(OC)c1
2. O=CC=O
3. OCC=Cc1ccccc1
4. Clc1ccccc1

Non-sensitizer
Non-sensitizer
Non-sensitizer
Sensitizer

Count: 2. Required value per item: Classification, Pos if 1 sample > 0.
1. O=C(O)c1ccc(O)cc1 [p-hydroxybenzoic acid]
2. CCCCCCCC(=O)O

["Non-sensitizer", "Non-sensitizer"]
